Tested on: liver cancer cell line SK-HEP-1
Experiment: SRB cell viability assay, liver cancer cell line SK-HEP-1
Type: cell-based
Details: SK-HEP-1, 72 hours; read-out: Cell growth inhibition concentration (IC50)

Compound | IC50 [nM]
CCCCCCCCC[C@@H](O)CC(=O)N[C@@H](CC(N)=O)C(=O)N[C@@H](CCC(N)=O)C(=O)N[C@@H](CC(=O)c1cc(C)cc(O)c1C(=O)c1c(O)cccc1O)CC(C)C [Asperphenin A] | 2300
